Tested on: HT-1080
Assay: Modulatory profiling: Alamar Blue viability, lethal compound cotreated with death modulator (EC50, AUC)
Format: cell-based
Conditions: HT-1080, modulator LNAME
// NB: equality with 0.01 counts as FALSE; only AUC HT.LNAME strictly below is TRUE

COMPOUND	SYSTEM_NAME	ANSWER_LABEL
C[S+]([O-])c1nc(-c2ccc(Br)cc2)cc(-c2ccccc2)c1C#N (stereo not drawn) [CIL17]	HT-1080	FALSE
O=C1c2c(O)ccc(O)c2C(=O)c2c(NCCNCCO)ccc(NCCNCCO)c21 [Mitoxantrone]	HT-1080	FALSE
C=CCC1(Cl)C(=O)C(Cl)=C(n2ccnc2)C1(OC)OC (stereo not drawn) [CIL76]	HT-1080	FALSE

Q: Strictly below 0.01: is that where AUC HT.LNAME of COc1cccc2c1C(=O)c1c(O)c3c(c(O)c1C2=O)C[C@@](O)(C(C)=O)C[C@@H]3O[C@H]1C[C@H](N)[C@H](O)[C@H](C)O1 [Daunorubicin] sits?
A: TRUE

Q: Strictly below 0.01: is that where AUC HT.LNAME of CC(C)=CCCC1=CCC(CNCCCN(C)C)C(C)C1 (stereo not drawn) [CIL28] sits?
A: TRUE

Q: Strictly below 0.01: is that where AUC HT.LNAME of CCCCS(=O)(=O)/C=C\C=C/S(=O)(=O)CCCC [CIL49] sits?
A: FALSE

Q: Strictly below 0.01: is that where AUC HT.LNAME of CC(C)C1CC(CCNCc2ccc3c(c2)OCO3)(c2ccccc2)CCO1 (stereo not drawn) [CIL51] sits?
A: FALSE

Q: Strictly below 0.01: is that where AUC HT.LNAME of COc1nn(-c2ccccc2)c(=O)c(Cl)c1Cl [CIL23] sits?
A: TRUE

====

Test system: BJeLR
Assay: Modulatory profiling: Alamar Blue viability, lethal compound cotreated with death modulator (EC50, AUC)
Format: cell-based, human
Conditions: BJeLR cells; lethal compound cotreated with modulator NMMA; modulatory profile value (AUC)
// NB: equality with 0.01 counts as Criterion not met; only AUC, modulator BJ.NMMA strictly below is Criterion met

Use the examples below as a reference point.
COMPOUND	SYSTEM_NAME	ANSWER_LABEL
COc1ccc(-n2nnnc2S(=O)(=O)CC(=O)N2CCCCC2)cc1 [CIL48]	BJeLR	Criterion not met
C=CCC1(Cl)C(=O)C(Cl)=C(n2ccnc2)C1(OC)OC (centres unmarked) [CIL76]	BJeLR	Criterion met
N/C(Cc1ccc(Cl)cc1)=N\OC(=O)c1cccc2ccccc12 [CIL70]	BJeLR	Criterion met
CC[C@]1(O)C[C@H]2CN(CCc3c([nH]c4ccccc34)[C@@](C(=O)OC)(c3cc4c(cc3OC)N(C=O)[C@H]3[C@@](O)(C(=O)OC)[C@H](OC(C)=O)[C@]5(CC)C=CCN6CC[C@]43[C@@H]65)C2)C1 [Vincristine]	BJeLR	Criterion met
COC(C)(C)C#CC(=O)c1cccc2ccccc12 [CIL34]	BJeLR	Criterion not met
O=C1c2c(O)ccc(O)c2C(=O)c2c(NCCNCCO)ccc(NCCNCCO)c21 [Mitoxantrone]	BJeLR	Criterion met

Q: Strictly below 0.01: is that where AUC, modulator BJ.NMMA of O=C(CCl)N(c1ccccc1)c1c[nH]c2ccccc12 [CIL69] sits?
A: Criterion met

Q: Strictly below 0.01: is that where AUC, modulator BJ.NMMA of O=C(/C=C/c1cccc(NC(=O)c2cccs2)c1)c1ccccc1 [CIL33] sits?
A: Criterion not met

====

The following compounds are shown together with reported AUC HT.NMMA values.
Tested on: HT-1080
Test: Modulatory profiling: Alamar Blue viability, lethal compound cotreated with death modulator (EC50, AUC)
Format: cell-based
Settings: HT-1080, modulator NMMA
Give your answer as a number; write no unit.

Reference set, count: 6
COMPOUND	READOUT_NUMBER
O=C(CCl)N(c1ccc(Cl)cc1)c1c[nH]c2ccccc12 [CIL75]	−0.02794
CS[C@H]1SC[C@H]2C(=O)N(C)[C@@H](C(C)C)C(=O)OC[C@@H](NC(=O)c3cnc4ccccc4n3)C(=O)N[C@@H](C)C(=O)N(C)[C@@H]1C(=O)N(C)[C@@H](C(C)C)C(=O)OC[C@@H](NC(=O)c1cnc3ccccc3n1)C(=O)N[C@@H](C)C(=O)N2C [Echinomycin]	−0.0009733
CC[C@@]1(O)C(=O)OCc2c1cc1n(c2=O)Cc2cc3ccccc3nc2-1 [Camptothecin]	0.01978
CCCCS(=O)(=O)/C=C\C=C/S(=O)(=O)CCCC [CIL49]	0.000429
CCOc1ccccc1-n1c(C(C)N2CCN(C(=O)COc3ccc(Cl)cc3)CC2)nc2ccccc2c1=O (stereo not shown) [erastin, reference compound]	0.006826
O=c1c(Cl)c(Cl)cnn1-c1ccc(Cl)c(C(F)(F)F)c1 [CIL25]	−0.006639

Q: So what does the record say about AUC HT.NMMA for N/C(=N\OC(=O)C12CC3CC(CC(C3)C1)C2)c1ccccc1 [CIL41] ?
A: −0.01029

Q: So what does the record say about AUC HT.NMMA for CC(C)(C)C1CCc2c(sc(NC(=O)CN3CCNCC3)c2C(N)=O)C1 (stereo not shown) [CIL10] ?
A: −0.009286

====

Test system: HT-1080 cells
Assay: Lethality of commercially available CIL41/70 structural analogs
Format: cell-based
Settings: Homo sapiens, tested once in technical triplicates
The following compounds are shown together with reported EC50 values.

COMPOUND	EC50
N[C@H](Cc1ccc(Cl)cc1)NOC(=O)/C=C/c1ccccc1	10.2 µg/mL
N/C(Cc1ccc([N+](=O)[O-])cc1)=N\OC(=O)CCc1ccccc1	> 20 µg/mL
COc1ccccc1C/C(N)=N/OC(=O)COc1ccc2ccccc2c1	> 20 µg/mL

Q: So what does the record say about EC50 for Cc1cccc(OCC(=O)O/N=C(\N)Cc2ccc([N+](=O)[O-])cc2)c1C ?
A: > 20 µg/mL

Q: So what does the record say about EC50 for N/C(Cc1cccs1)=N\OC(=O)COc1ccc(Br)cc1 ?
A: > 20 µg/mL

====

Test system: BJeLR
Assay: Modulatory profiling: Alamar Blue viability, lethal compound cotreated with death modulator (EC50, AUC)
Assay type: cell-based, human
Details: BJeLR cells; lethal compound cotreated with modulator Lmin/NAD+; modulatory profile value (AUC)
The following compounds are shown together with reported AUC, modulator BJ.Lmin/NAD+ values.
Give your answer as a number; write no unit.

Reference set, count: 8
COMPOUND	READOUT_NUMBER
COc1cccc2c1C(=O)c1c(O)c3c(c(O)c1C2=O)C[C@@](O)(C(=O)CO)C[C@@H]3O[C@H]1C[C@H](N)[C@H](O)[C@H](C)O1 [Doxorubicin]	0.1477
O=C(/C=C/c1cccc(NC(=O)c2cccs2)c1)c1ccccc1 [CIL33]	−0.0126
N/C(Cc1ccc(Cl)cc1)=N\OC(=O)c1cccc2ccccc12 [CIL70]	0.2633
Cc1ccc(O)c(/N=C/C=C/c2cccc(Br)c2)c1 [CIL27]	0.02365
OCCNCC(O)Cn1c2ccc(Br)cc2c2cc(Br)ccc21 (centres unmarked) [CIL7]	0.01771
Cc1[nH]c2c(ccc3ccccc32)c1C1C(CCN)C1(C)C (centres unmarked) [CIL74]	0.07154
COc1nn(-c2ccccc2)c(=O)c(Cl)c1Cl [CIL23]	0.004125
COc1ccccc1/C=C/C1(C(=O)NC2CCCC2)CC(=O)N1c1ccc(F)cc1 (centres unmarked) [CIL1]	−0.01947

Q: Reported AUC, modulator BJ.Lmin/NAD+ for BJeLR, given CC(C)[C@@H]1NC(=O)[C@H](C)OC(=O)[C@@H](C(C)C)NC(=O)[C@@H](C(C)C)OC(=O)[C@H](C(C)C)NC(=O)[C@H](C)OC(=O)[C@@H](C(C)C)NC(=O)[C@@H](C(C)C)OC(=O)[C@H](C(C)C)NC(=O)[C@H](C)OC(=O)[C@@H](C(C)C)NC(=O)[C@@H](C(C)C)OC1=O [Vatinomycin] ?
A: 0.1525

Q: Reported AUC, modulator BJ.Lmin/NAD+ for BJeLR, given COc1cccc(-n2nnnc2S(C)(=O)=O)c1 [CIL16] ?
A: −0.05229

Q: Reported AUC, modulator BJ.Lmin/NAD+ for BJeLR, given O=C(Oc1ccc(Cl)c2cccnc12)c1ccco1 [CIL58] ?
A: 0.02713

Q: Reported AUC, modulator BJ.Lmin/NAD+ for BJeLR, given CCC(C(NNC(=O)c1ccc(C(F)(F)F)cc1)c1ccc(C(F)(F)F)cc1)[N+](=O)O (centres unmarked) [CIL88] ?
A: 0.03399

Q: Reported AUC, modulator BJ.Lmin/NAD+ for BJeLR, given CC(C)C[C@H](NC(=O)[C@H](Cc1ccccc1)NC(=O)c1cnccn1)B(O)O [Bortezomib] ?
A: 0.1491

Q: Reported AUC, modulator BJ.Lmin/NAD+ for BJeLR, given CCOC(=O)[C@@H]1[C@@H](c2ccccc2)C(=O)CCN1NC(=O)c1ccccc1 [CIL89] ?
A: 0.04069

Q: Reported AUC, modulator BJ.Lmin/NAD+ for BJeLR, given O=c1c(Cl)c(Cl)cnn1-c1ccc(Cl)cc1 [CIL63] ?
A: 0.07776

Q: Reported AUC, modulator BJ.Lmin/NAD+ for BJeLR, given CCCCNc1cc(C)nc(NCc2ccccc2)n1 [CIL18] ?
A: −0.0502

Data provenance is patent US10947188B2.
